system: SNU-16; assay: Cytotoxicity against human stomach cancer cell line SNU-16 in MTT assay; assay type: functional, cell-based
observation_type: pIC50
# pIC50 = -log10(concentration in molar units)

CISPLATIN    5.30

Please turn your attention to the following entry.
Input line: Entry CARBOPLATIN needs its pIC50 filled in; supply it.
Output line: 4.86
